experiment: BSK_SAg_SRB: Viability Assessment in the BioMAP Diversity Plus: SAg Assay (AID 2283096); settings: primary human HUVEC with PBMC;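 further: cells read one day after compound addition; hits may be either gain or loss of signal compared with DMSO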
Activity calls are given as the source filed them. How the source made its calls: active means hit-call score of the fitted dose curve at least 0.9, where 1 is the maximum; inactive means score below 0.9.
Outcomes: active, inactive

compound	groupLabel
Cc1nc(-c2ccccn2)ncc1C(=O)Nn1cc(C)c2cc(F)ccc21	inactive
CCc1cccc(CC)c1N	inactive
O=S1(=O)CCCO1	inactive
OCCC(F)(F)C(F)(F)C(F)(F)C(F)(F)F	inactive
CC(=O)c1ccccc1	inactive
CCCCN1C(=O)[C@@H]([C@H](O)C2CCCCC2)NC(=O)C12CCN(Cc1ccc(Oc3ccc(C(=O)O)cc3)cc1)CC2	inactive
COc1cc2c(c(OC)c1OC)-c1ccc(OC)c(=O)cc1[C@@H](NC(C)=O)CC2	active
CCCCCCCC/C=C\CCCCCCCC(=O)OC[C@@H](O)[C@H]1OC[C@H](O)[C@H]1O	inactive
CNC(C)=O	inactive
OCCNCCO	inactive
O=C(O)c1ccc2c(c1)nc(C(=O)NC1CCN(C3CC3)CC1)n2Cc1cc(-c2ccc(Cl)s2)on1	inactive
Cc1cccc(O)c1C	inactive
c1ccc2ncccc2c1	inactive
CCCCCCCCCC	inactive
CCCCCCCC1CCC(=O)O1 (stereo unspecified)	inactive
CCCOc1ccc(S(=O)(=O)N2CCN(CC)CC2)cc1-c1nc2c(CC)n(Cc3ccccn3)nc2c(=O)[nH]1	inactive
O=C(O)[C@H](O)[C@@H](O)C(=O)O	inactive
CC(C)CC(C)O (stereo unspecified)	inactive
NC(=O)N1c2ccccc2C=Cc2ccccc21	inactive
OCc1c[nH]c2ccccc12	inactive
FC(F)=C(F)C(F)(F)C(F)(F)C(F)(F)C(F)(F)C(F)(F)C(F)(F)F	inactive
O=S(=O)(O)CCC(F)(F)C(F)(F)C(F)(F)C(F)(F)C(F)(F)C(F)(F)F	inactive
OC(O)(C(F)C(O)(O)C(F)(F)F)C(F)(F)F	inactive
CC(C)CCCCCCOC(=O)C1CCCCC1C(=O)OCCCCCCC(C)C (stereo unspecified)	inactive
O=C(NO)C1(NS(=O)(=O)c2ccc(Oc3ccc(F)cc3)cc2)CCOCC1	inactive
Cc1ncc([C@@H](CCCCCCc2ccc3c(n2)NCCC3)CC(=O)O)cn1	inactive

---

experiment: BSK_LPS_SRB: Viability Assessment in the BioMAP Diversity Plus: LPS Assay (AID 2283079); conditions: primary human HUVEC with PBMC;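 further: total protein by sulforhodamine B absorbance as a cytotoxicity measure; measured one day after compound addition; fitted in both directions against DMSO so loss or gain of signal counts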
Calls of active or inactive are those of the source. Rule for the calls: active = hit-call score of the fitted dose curve at least 0.9, where 1 is the maximum; inactive = score below 0.9.
Outcomes: active, inactive

molecule	groupLabel
OCc1ccccc1	inactive
CCCCOC(=O)c1ccccc1	inactive
CCCCCCCCCCCCCCO	active
O=c1[nH]cnc2c1ncn2[C@H]1CC[C@@H](CO)O1	inactive
C=CN1CCCC1=O	inactive
OCCC(F)(F)C(F)(F)C(F)(F)C(F)(F)F	inactive
Nc1ccn([C@@H]2O[C@H](CO)[C@@H](O)[C@@H]2O)c(=O)n1	inactive
CC(C)c1nnc2ccc(-c3ocnc3-c3cc(F)ccc3F)cn12	inactive
CCCCCCCCN(C)C	inactive
NC(N)=O	inactive
CC(C)C(=O)Nc1ccc([N+](=O)[O-])c(C(F)(F)F)c1	inactive
C[C@]12C=CC(=O)C=C1CC[C@H]1[C@@H]3C[C@@H](O)[C@](O)(C(=O)CO)[C@@]3(C)C[C@H](O)[C@@]12F	inactive
CC(C)CCCCCCOC(=O)C1CCCCC1C(=O)OCCCCCCC(C)C (stereo not drawn)	inactive
FC(F)=C(F)C(F)(F)C(F)(F)C(F)(F)C(F)(F)C(F)(F)C(F)(F)F	inactive
Cn1c(=O)c2[nH]cnc2n(C)c1=O	inactive
CCCCCCCC1CCC(=O)O1 (stereo not drawn)	inactive
CCOc1ccc2[nH]cc(C(=O)NCc3ccccc3)c(=O)c2n1	inactive
Cc1ncc([C@@H](CCCCCCc2ccc3c(n2)NCCC3)CC(=O)O)cn1	inactive
OCCNCCO	inactive
Cc1ccc(S(=O)(=O)NC(=O)NN2CCCCCC2)cc1	inactive
COCc1nnc(-c2ccc[n+]([O-])c2)n1-c1c(Cl)c(Cl)cc2[nH]c(=O)c(=O)[nH]c12	inactive
O=C1CN(N=Cc2ccc([N+](=O)[O-])o2)C(=O)N1	inactive
c1ccc2ncccc2c1	inactive
O=C(O)c1ccc2c(c1)nc(C(=O)NC1CCN(C3CC3)CC1)n2Cc1cc(-c2ccc(Cl)s2)on1	inactive
S=P(N1CC1)(N1CC1)N1CC1	inactive
FC(F)(F)C(F)(F)C(F)(F)C(F)(F)C(F)(F)C(F)(F)I	inactive
O=C(O)[C@H](O)[C@@H](O)C(=O)O	inactive
CCn1nc(C)c2c1C(=O)NCC(c1ccc(O)cc1)=N2	inactive
COc1cc(C(C)C)c2c(c1)S(=O)(=O)N(COc1cc(=O)n3cccc(OCCN4CCCCC4)c3n1)C2=O	inactive
OC(Cn1cncn1)(Cn1cncn1)c1ccc(F)cc1F	inactive
c1ccc2cc3ccccc3cc2c1	inactive
Cc1nc(-c2ccccn2)ncc1C(=O)Nn1cc(C)c2cc(F)ccc21	inactive
COc1cc2c(c(OC)c1OC)-c1ccc(OC)c(=O)cc1[C@@H](NC(C)=O)CC2	active
CCCCC(CC)C(=O)OCCOCCOCCOC(=O)C(CC)CCCC (stereo not drawn)	inactive
COS(C)(=O)=O	inactive
OCC(CO)(CO)CO	inactive
NC(=O)N1c2ccccc2C=Cc2ccccc21	inactive
CCOC(N)=O	inactive
CCCCCCCCCC	inactive
CCCCCOC(C)=O	inactive
CCCc1ccccc1	inactive
FC(F)C(F)(F)COCC1CO1 (stereo not drawn)	inactive
CCCCCCCCCCCCCCCCOS(=O)(=O)O	inactive
Cn1cc[nH]c1=S	inactive
OC(CCl)CCl	inactive
C=CCc1cc(S(=O)(=O)c2ccc(O)c(CC=C)c2)ccc1O	active
CCc1cccc(CC)c1N	inactive
OCCOCCOCCO	inactive
NC(=O)NN=Cc1ccc([N+](=O)[O-])o1	inactive
CC[C@H](C)C(=O)O[C@H]1C[C@H](O)C=C2C=C[C@H](C)[C@H](CC[C@@H](O)C[C@@H](O)CC(=O)O)[C@H]21	inactive
O=C(O)c1cccc(C(=O)O)c1	inactive
CC(C)CC(C)O (stereo not drawn)	inactive
c1ccc(C(O[C@@H]2CCCN(CCc3ccc4c(c3)OCO4)C2)c2ccccc2)cc1	active
